src = patent US9517994B2

Biological target: M tuberculosis RNA polymerase core enzyme + M. tuberculosis σA (Mycobacterium tuberculosis, UniProt P9WGY7+P9WGY9)
Sequence (P9WGI1 whole entry): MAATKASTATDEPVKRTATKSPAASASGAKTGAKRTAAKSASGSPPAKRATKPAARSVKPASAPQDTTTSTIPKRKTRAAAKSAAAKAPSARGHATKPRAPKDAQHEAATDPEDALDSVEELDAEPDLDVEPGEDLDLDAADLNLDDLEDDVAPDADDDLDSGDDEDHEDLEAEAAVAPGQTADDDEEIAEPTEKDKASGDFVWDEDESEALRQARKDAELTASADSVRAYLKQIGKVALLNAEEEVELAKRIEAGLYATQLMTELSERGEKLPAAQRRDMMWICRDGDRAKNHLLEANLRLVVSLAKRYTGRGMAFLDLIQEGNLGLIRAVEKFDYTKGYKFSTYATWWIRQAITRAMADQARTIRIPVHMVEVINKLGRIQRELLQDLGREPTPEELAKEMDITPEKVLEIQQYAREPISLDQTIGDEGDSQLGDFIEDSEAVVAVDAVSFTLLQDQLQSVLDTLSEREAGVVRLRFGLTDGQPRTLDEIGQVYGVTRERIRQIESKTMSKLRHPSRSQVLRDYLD
Sequence (P9WGY5 whole entry, further chain): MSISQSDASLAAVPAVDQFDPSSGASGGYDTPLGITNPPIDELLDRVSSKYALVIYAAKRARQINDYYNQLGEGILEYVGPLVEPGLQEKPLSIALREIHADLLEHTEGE
Sequence (P9WGZ1 whole entry, further chain): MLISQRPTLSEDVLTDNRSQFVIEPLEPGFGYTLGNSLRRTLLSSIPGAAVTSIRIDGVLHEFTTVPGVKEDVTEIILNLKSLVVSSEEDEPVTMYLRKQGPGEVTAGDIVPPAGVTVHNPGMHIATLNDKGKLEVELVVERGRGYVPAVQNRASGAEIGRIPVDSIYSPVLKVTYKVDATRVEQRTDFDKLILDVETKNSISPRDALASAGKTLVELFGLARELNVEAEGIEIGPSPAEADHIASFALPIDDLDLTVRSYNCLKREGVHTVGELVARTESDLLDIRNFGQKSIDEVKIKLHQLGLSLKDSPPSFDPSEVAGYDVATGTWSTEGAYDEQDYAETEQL
Sequence (P9WGY7 whole entry): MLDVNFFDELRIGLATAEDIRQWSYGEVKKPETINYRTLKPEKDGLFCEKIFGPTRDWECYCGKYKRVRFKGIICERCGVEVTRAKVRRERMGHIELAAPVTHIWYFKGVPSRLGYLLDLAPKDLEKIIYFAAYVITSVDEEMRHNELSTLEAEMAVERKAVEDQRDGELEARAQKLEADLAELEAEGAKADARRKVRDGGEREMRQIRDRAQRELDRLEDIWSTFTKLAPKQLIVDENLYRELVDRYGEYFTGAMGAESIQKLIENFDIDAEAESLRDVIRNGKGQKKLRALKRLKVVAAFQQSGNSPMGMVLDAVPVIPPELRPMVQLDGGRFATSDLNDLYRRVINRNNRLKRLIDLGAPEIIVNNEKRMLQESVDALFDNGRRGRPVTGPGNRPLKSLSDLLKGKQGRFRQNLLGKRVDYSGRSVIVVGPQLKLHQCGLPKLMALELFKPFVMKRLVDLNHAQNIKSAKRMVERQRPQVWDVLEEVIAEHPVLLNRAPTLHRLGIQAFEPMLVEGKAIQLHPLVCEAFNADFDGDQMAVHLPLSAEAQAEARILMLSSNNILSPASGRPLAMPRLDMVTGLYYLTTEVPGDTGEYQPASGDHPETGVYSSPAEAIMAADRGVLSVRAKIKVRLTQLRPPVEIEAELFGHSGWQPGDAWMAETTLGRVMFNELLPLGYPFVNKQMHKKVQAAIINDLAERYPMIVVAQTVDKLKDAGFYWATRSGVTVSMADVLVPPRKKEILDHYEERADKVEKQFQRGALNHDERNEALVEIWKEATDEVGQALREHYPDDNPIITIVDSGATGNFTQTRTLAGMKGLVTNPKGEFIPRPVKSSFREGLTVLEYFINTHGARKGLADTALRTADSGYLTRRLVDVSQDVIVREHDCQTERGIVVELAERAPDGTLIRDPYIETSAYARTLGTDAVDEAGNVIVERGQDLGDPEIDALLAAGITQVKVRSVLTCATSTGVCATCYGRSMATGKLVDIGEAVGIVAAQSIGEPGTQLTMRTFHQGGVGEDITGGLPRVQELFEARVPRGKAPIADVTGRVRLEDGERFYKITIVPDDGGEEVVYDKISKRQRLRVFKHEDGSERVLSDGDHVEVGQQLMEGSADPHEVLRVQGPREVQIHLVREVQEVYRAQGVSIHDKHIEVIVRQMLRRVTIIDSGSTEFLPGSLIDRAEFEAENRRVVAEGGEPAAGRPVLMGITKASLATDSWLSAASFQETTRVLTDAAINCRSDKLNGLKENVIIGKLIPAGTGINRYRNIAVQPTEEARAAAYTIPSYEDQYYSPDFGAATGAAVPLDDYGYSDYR
Sequence (P9WGY9 whole entry): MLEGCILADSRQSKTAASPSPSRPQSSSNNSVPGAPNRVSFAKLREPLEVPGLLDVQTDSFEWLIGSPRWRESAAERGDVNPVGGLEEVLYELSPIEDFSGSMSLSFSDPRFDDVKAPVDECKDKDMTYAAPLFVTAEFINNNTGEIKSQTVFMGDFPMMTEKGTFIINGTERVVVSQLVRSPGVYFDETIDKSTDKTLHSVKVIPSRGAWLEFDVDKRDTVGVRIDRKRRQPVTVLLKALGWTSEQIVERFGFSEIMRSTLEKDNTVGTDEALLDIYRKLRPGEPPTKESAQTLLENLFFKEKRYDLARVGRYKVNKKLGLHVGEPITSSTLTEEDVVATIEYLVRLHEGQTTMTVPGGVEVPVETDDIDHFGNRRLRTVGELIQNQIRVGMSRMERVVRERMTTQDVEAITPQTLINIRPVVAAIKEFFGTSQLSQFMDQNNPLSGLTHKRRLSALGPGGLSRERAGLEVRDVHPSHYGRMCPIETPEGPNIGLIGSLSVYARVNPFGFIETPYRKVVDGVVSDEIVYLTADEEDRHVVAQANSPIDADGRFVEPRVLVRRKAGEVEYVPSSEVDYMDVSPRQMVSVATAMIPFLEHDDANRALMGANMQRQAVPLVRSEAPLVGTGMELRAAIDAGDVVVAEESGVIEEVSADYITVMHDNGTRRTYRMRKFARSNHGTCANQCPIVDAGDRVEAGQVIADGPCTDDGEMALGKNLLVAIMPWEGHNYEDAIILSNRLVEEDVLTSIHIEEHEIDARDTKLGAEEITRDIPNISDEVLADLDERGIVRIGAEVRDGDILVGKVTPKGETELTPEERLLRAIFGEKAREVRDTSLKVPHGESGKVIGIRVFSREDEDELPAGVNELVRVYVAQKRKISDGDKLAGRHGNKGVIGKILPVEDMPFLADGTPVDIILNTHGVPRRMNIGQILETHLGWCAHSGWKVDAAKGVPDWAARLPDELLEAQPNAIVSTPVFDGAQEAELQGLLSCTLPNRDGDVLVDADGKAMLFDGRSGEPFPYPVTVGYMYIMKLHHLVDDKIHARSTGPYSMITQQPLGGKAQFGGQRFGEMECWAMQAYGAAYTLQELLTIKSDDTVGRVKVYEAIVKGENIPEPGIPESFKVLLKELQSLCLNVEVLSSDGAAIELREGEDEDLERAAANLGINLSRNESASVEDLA
Assay: Fluorescence-detected assay of inhibition of Mycobacterium tuberculosis RNA polymerase
Conditions: read-out: IC50 Mt RNAP
The reader will find reported IC50 values listed item by item below.
The response must be a number in µM with no trailing unit.

Solved cases below.
O=C(CCc1ccc(C(F)(F)F)cc1C(F)(F)F)c1c(O)cc(O)cc1O: 3.3
COc1cccc(CCC(=O)c2c(O)cc(O)cc2O)c1: 3
Cc1cc(F)ccc1CCC(=O)c1c(O)cc(O)cc1O: 3.7

Okay, now this molecule:
QUERY: Please report the recorded IC50 for "O=C(CCc1cccc(Cl)c1)c1c(O)cc(O)cc1O" .
RESULT: 4.8
